Reference source: ChEMBL document CHEMBL1152758

Below: a set of entries, each annotated with reported IC50.
- system tested: Glycogen synthase kinase-3 beta (Homo sapiens, UniProt P49841)
- Sequence (P49841 whole entry): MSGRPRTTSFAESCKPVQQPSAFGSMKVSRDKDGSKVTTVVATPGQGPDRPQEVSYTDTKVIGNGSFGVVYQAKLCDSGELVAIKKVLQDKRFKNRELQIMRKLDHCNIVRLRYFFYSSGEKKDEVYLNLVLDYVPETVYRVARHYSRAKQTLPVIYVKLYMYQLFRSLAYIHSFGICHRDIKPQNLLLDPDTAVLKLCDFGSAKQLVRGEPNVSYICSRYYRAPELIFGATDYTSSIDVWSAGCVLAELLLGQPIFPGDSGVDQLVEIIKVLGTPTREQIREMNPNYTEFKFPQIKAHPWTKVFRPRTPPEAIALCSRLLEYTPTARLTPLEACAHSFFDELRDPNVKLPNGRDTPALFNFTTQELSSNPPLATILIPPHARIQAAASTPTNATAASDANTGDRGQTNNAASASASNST

# count of solved cases: 2
The compound CC1(C)CNC(=O)c2cc3n(c2C1)CCc1cc(Br)ccc1-3 , when measured on Glycogen synthase kinase-3 beta (Homo sapiens, UniProt P49841), yielded IC50 of > 10 µM

The compound CC1(C)CNC(=O)c2cc3n(c2C1)CCc1cc([N+](=O)[O-])ccc1-3 , when measured on Glycogen synthase kinase-3 beta (Homo sapiens, UniProt P49841), yielded IC50 of > 10 µM

Next, consider the following compound.
The compound CC1(C)CNC(=O)c2cc3n(c2C1)CCc1cc(F)ccc1-3 , when measured on Glycogen synthase kinase-3 beta (Homo sapiens, UniProt P49841), yielded IC50 of > 10 µM

====

- measurement notes: Inhibition of Marthasterias glacialis oocyte CDK1/Cyclin B
measured property: IC50

# count of solved cases: 2
Summary for this compound, CC1(C)CNC(=O)c2cc3n(c2C1)CCc1cc(F)ccc1-3 : IC50 is > 10 µM

Summary for this compound, CC1(C)CNC(=O)c2cc3n(c2C1)CCc1cc(Br)ccc1-3 : IC50 is > 10 µM

Next, consider the following compound.
Summary for this compound, CC1(C)CNC(=O)c2cc3n(c2C1)CCc1cc([N+](=O)[O-])ccc1-3 : IC50 is > 10 µM

====

- Test system: PC-3
- measurement notes: Cytotoxicity against human PC3 cells after 48 hrs by SRB assay
- Assay type: functional, cell-based
- applied conditions: PC-3, 48 h
pIC50: −log10 of the molar value.
Below: a set of entries, each annotated with reported pIC50.

Summary for this compound, CC1(C)CNC(=O)c2cc3n(c2C1)CCc1ccccc1-3 : pIC50 is < 4.00

Summary for this compound, CC1(C)CNC(=O)c2cc(-c3ccc([N+](=O)[O-])cc3)n(-c3ccc(Cl)cc3)c2C1 : pIC50 is 4.76

Summary for this compound, CC1(C)CC(=O)c2cc3n(c2C1)CCc1cc(Br)ccc1-3 : pIC50 is 4.30

Summary for this compound, COc1ccc2c(c1)CCn1c-2cc2c1CC(C)(C)CNC2=O : pIC50 is < 4.00

Summary for this compound, CC1(C)CNC(=O)c2cc3n(c2C1)CCc1cc(Cl)ccc1-3 : pIC50 is < 4.00

Next, consider the following compound.
Summary for this compound, CC1(C)CC(=O)c2cc3n(c2C1)CCc1cc([N+](=O)[O-])ccc1-3 : pIC50 is < 4.00

====

- Tested on: PC-3
- measurement notes: Cytotoxicity against human PC3 cells after 48 hrs by SRB assay
- Format: functional, cell-based
- applied conditions: PC-3, 48 h
Below: a set of entries, each annotated with reported pIC50.
pIC50 here: minus log base 10 of the concentration, concentration in moles per litre.

The compound CC1(C)CNC(=O)c2cc3n(c2C1)CCc1cc(Br)ccc1-3 , when measured on PC-3, yielded pIC50 of 4.47

The compound O=C1Cc2c([nH]c3ccc([N+](=O)[O-])cc23)-c2ccccc2N1 , when measured on PC-3, yielded pIC50 of 5.95

The compound CC1(C)CNC(=O)c2cc3n(c2C1)CCc1cc([N+](=O)[O-])ccc1-3 , when measured on PC-3, yielded pIC50 of 4.59

Next, consider the following compound.
The compound CC1(C)CNC(=O)c2cc(-c3ccc([N+](=O)[O-])cc3)n(-c3ccc(Br)cc3)c2C1 , when measured on PC-3, yielded pIC50 of 4.68
